target: human PAH with the R408W mutation (A375 R408W cells) (Homo sapiens, UniProt P00439, R408W); construct: expressed in transfected cells; test: Cell Based Phenylalanine Flux Assay; conditions: A375 cells expressing R408W PAH; 24 hrs with compound, then 20 μM sepiapterin and 800 μM 13C9,15N-Phenylalanine for 4 hours; 13C-Tyrosine by LC-MS; average where tested multiple times
Sequence (P00439 whole entry R408W): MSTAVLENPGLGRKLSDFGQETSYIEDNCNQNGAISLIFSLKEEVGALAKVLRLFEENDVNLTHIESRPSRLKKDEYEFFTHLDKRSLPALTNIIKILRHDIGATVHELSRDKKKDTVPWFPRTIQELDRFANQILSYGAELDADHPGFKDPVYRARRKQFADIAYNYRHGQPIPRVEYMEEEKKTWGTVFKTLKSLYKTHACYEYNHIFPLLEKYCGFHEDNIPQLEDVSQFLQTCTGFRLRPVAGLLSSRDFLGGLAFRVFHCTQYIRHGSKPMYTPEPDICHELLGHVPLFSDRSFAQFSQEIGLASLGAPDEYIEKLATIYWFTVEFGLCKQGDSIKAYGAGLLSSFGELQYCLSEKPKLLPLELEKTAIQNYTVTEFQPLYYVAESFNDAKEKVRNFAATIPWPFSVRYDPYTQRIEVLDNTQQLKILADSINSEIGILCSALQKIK
READOUT_TYPE: AC50

Consider the reported AC50 for these molecules:
molecule="CC(C)(C)OC(=O)N1CC(c2nnc(C(=O)N3CCc4[nH]cnc4C3c3nc4cc(F)ccc4o3)o2)C1 (stereo not shown)" readout_type=AC50 value_observed="1 to 5 µM"
molecule="O=C(CCc1cncs1)N1CCc2[nH]cnc2C1c1nc2cc(F)ccc2o1 (stereo not shown)" readout_type=AC50 value_observed="1 to 5 µM"
molecule="O=C(CCc1cncs1)N1CCc2[nH]cnc2[C@H]1c1nc2c(F)cccc2o1 (single isomer, unassigned)" readout_type=AC50 value_observed="1 to 5 µM"
molecule="Cc1ccc2oc(C3c4nc[nH]c4CCN3C(=O)c3nnc(C)o3)nc2c1 (stereo not shown)" readout_type=AC50 value_observed="1 to 5 µM"
molecule="Cc1ccc2nc(C3c4nc[nH]c4CCN3C(=O)c3nnc(C(C)(C)O)o3)oc2c1 (stereo not shown)" readout_type=AC50 value_observed="1 to 5 µM"

Please go through the list and note AC50 for each molecule.
1. O=C(c1nnc(-c2ccn(C(F)F)n2)o1)N1CCc2[nH]cnc2C1c1nc2cc(C(F)(F)F)ccc2o1 (stereo not shown)
2. Cn1nc(C(C)(C)C)cc1C(=O)N1CCc2[nH]cnc2C1c1nc2ccccc2o1 (stereo not shown)
3. Cc1ccc2oc(C3c4nc[nH]c4CCN3C(=O)c3nc(C)nn3C)nc2c1 (stereo not shown)
4. CC(C)(O)c1nc(C(F)F)c(C(=O)N2CCc3[nH]cnc3C2c2nc3cc(F)c(F)cc3o2)o1 (stereo not shown)
5. CCOC(=O)N1CCN(c2ccc3c(C(=O)N4CCc5[nH]cnc5C4c4nc5cc(F)ccc5o4)cnn3c2)CC1 (stereo not shown)
6. COCCOc1ccc2c(C(=O)N3CCc4[nH]cnc4C3c3nc4cc(F)ccc4o3)cnn2c1 (stereo not shown)

[out]
["1 to 5 µM", "1 to 5 µM", "1 to 5 µM", "1 to 5 µM", "1 to 5 µM", "1 to 5 µM"]

Value sought for every listed molecule: AC50.
1. O=C(CCc1ncco1)N1CCc2[nH]cnc2C1c1nc2cc(F)ccc2o1 (stereo not shown)
2. CNc1ccc2c(C(=O)N3CCc4[nH]cnc4C3c3nc4cc(F)ccc4o3)cnn2c1 (stereo not shown)

[out]
1: 1 to 5 µM; 2: ≥ 5 µM

Take each entry in turn and give its AC50.
1. O=C(c1nnc(-c2ccncc2)o1)N1CCc2[nH]cnc2C1c1nc2cc(F)ccc2o1 (stereo not shown)
2. O=C(c1nnc(-c2cnn(C(F)F)c2)o1)N1CCc2[nH]cnc2C1c1nc2cc(F)ccc2o1 (stereo not shown)
3. O=C(c1cnn2cc(F)ccc12)N1CCc2[nH]cnc2C1c1nc2cc(F)ccc2o1 (stereo not shown)

[out]
["1 to 5 µM", "1 to 5 µM", "≥ 5 µM"]

Provide each entry's AC50 from the list below.
1. CC(C)(O)c1cc(C(=O)N2CCc3[nH]cnc3C2c2nc3cc(F)ccc3o2)no1 (stereo not shown)
2. CC(C)(F)c1nnc(C(=O)N2CCc3[nH]cnc3C2c2nc3cc(F)ccc3o2)o1 (stereo not shown)
3. Cn1nc(Cl)nc1C(=O)N1CCc2[nH]cnc2C1c1nc2cc(F)ccc2o1 (stereo not shown)
4. Cc1cccc2nc(C3c4nc[nH]c4CCN3C(=O)c3ccn(-c4ccccn4)n3)oc12 (stereo not shown)

[out]
≥ 5 µM
1 to 5 µM
1 to 5 µM
1 to 5 µM

---

biological target: human PAH with the R408W mutation (A375 R408W cells) (Homo sapiens, UniProt P00439, R408W); construct: expressed in transfected cells; test: Cell Based Phenylalanine Flux Assay; conditions: A375 R408W cells; 24 hrs with compound, then 20 μM sepiapterin and 800 μM 13C9,15N-Phenylalanine for 4 hours; 13C-Tyrosine by LC-MS; average where tested multiple times
READOUT_TYPE: AC50

compound="CN(C)CCc1cn2ncc(C(=O)N3CCc4[nH]cnc4[C@@H]3c3nc4cc(F)ccc4o3)c2cc1Cl [Example 80]" assay_target="human PAH with the R408W mutation (A375 R408W cells) (Homo sapiens, UniProt P00439, R408W)" value_observed="1000 to 5000 nM"
compound="O=C(c1ocnc1C(F)F)N1CCc2[nH]cnc2[C@H]1c1nc2c(Br)cccc2o1 [Example 433]" assay_target="human PAH with the R408W mutation (A375 R408W cells) (Homo sapiens, UniProt P00439, R408W)" value_observed="≤ 500 nM"
compound="CN1CCN(c2ccc3c(C(=O)N4CCc5[nH]cnc5[C@@H]4c4nc5c(F)cccc5o4)cnn3c2)CC1 [Example 476]" assay_target="human PAH with the R408W mutation (A375 R408W cells) (Homo sapiens, UniProt P00439, R408W)" value_observed="1000 to 5000 nM"
compound="O=C(c1cnc(-c2ccccn2)o1)N1CCc2[nH]cnc2[C@@H]1c1nc2cc(F)ccc2o1 [Example 12]" assay_target="human PAH with the R408W mutation (A375 R408W cells) (Homo sapiens, UniProt P00439, R408W)" value_observed="1000 to 5000 nM"
compound="Cc1ccc2oc([C@@H]3c4nc[nH]c4CCN3C(=O)c3oc(-c4ccccn4)nc3C(F)F)nc2c1 [Example 737]" assay_target="human PAH with the R408W mutation (A375 R408W cells) (Homo sapiens, UniProt P00439, R408W)" value_observed="≤ 500 nM"

[in] What value of AC50 has been reported for the following compound? O=C(c1nnc(-c2ccccn2)o1)N1CCc2[nH]cnc2[C@H]1c1nc2cccc(F)c2o1 [Example 335]
[out] ≤ 500 nM

---

biological target: human PAH with the R408W mutation (A375 R408W cells) (Homo sapiens, UniProt P00439, R408W); construct: expressed in transfected cells; assay: Cell Based Phenylalanine Flux Assay; settings: A375 R408W cells; 24 hrs with compound, then 20 μM sepiapterin and 800 μM 13C9,15N-Phenylalanine for 4 hours; 13C-Tyrosine by LC-MS; average where tested multiple times
READOUT_TYPE: AC50

molecule="CC(C)(C)c1nc(C(F)F)c(C(=O)N2CCc3[nH]cnc3[C@@H]2c2nc3cc(F)ccc3o2)o1 [Example 754]" assay_target="human PAH with the R408W mutation (A375 R408W cells) (Homo sapiens, UniProt P00439, R408W)" readout_type=AC50 value_observed="1 to 5 µM"
molecule="CC(C)(O)c1nc(C(F)F)c(C(=O)N2CCc3[nH]cnc3[C@@H]2c2nc3ccc(F)c(F)c3o2)o1 [Example 298]" assay_target="human PAH with the R408W mutation (A375 R408W cells) (Homo sapiens, UniProt P00439, R408W)" readout_type=AC50 value_observed="1 to 5 µM"
molecule="Cc1cccc2nc([C@@H]3c4nc[nH]c4CCN3C(=O)c3nnc(-c4ccccn4)o3)oc12 [Example 567]" assay_target="human PAH with the R408W mutation (A375 R408W cells) (Homo sapiens, UniProt P00439, R408W)" readout_type=AC50 value_observed="≤ 0.5 µM"
molecule="Cn1ccc(-c2nc(C(F)F)c(C(=O)N3CCc4[nH]cnc4[C@H]3c3nc4ccccc4o3)o2)n1 [Example 761]" assay_target="human PAH with the R408W mutation (A375 R408W cells) (Homo sapiens, UniProt P00439, R408W)" readout_type=AC50 value_observed="≤ 0.5 µM"

[in] # query: AC50 of entry C[C@@H](O)c1nc(C(F)F)c(C(=O)N2CCc3[nH]cnc3[C@@H]2c2nc3ccc(F)cc3o2)o1 [Example 240]
[out] 1 to 5 µM

---

Record form. Attribute: AC50. Fill in for each entry.
molecular target: human PAH with the R408W mutation (A375 R408W cells) (Homo sapiens, UniProt P00439, R408W); construct: expressed in transfected cells; experiment: Cell Based Phenylalanine Flux Assay; details: A375 cells expressing R408W PAH; 24 hrs with compound, then 20 μM sepiapterin and 800 μM 13C9,15N-Phenylalanine for 4 hours; 13C-Tyrosine by LC-MS; average where tested multiple times

molecule="Cn1cnc(-c2nnc(C(=O)N3CCc4[nH]cnc4C3c3nc4cccc(C(F)(F)F)c4o3)o2)c1 (stereo not drawn)" value_observed="1 to 5 µM"
molecule="O=C(c1nnc(-c2cnn(S(=O)(=O)C3CC3)c2)o1)N1CCc2[nH]cnc2C1c1nc2cc(F)ccc2o1 (stereo not drawn)" value_observed="1 to 5 µM"
molecule="CC1CN(C(=O)c2oc(C(C)(C)O)nc2C(F)F)C(c2nc3cc(F)ccc3o2)c2nc[nH]c21 (stereo not drawn)" value_observed="≥ 5 µM"
molecule="O=C(c1cnn2cc(N3CCN(CC(F)(F)F)CC3)ccc12)N1CCc2[nH]cnc2C1c1nc2cc(F)ccc2o1 (stereo not drawn)" value_observed="≥ 5 µM"
molecule="CC(C)(C)OC(=O)N1CCN(c2ccc3c(C(=O)N4CCc5[nH]cnc5C4c4nc5cc(F)ccc5o4)cnn3c2)CC1 (stereo not drawn)" value_observed="1 to 5 µM"

Please look at the following molecule next.
[in] human PAH with the R408W mutation (A375 R408W cells) (Homo sapiens, UniProt P00439, R408W) / AC50 / O=C(c1nnc(-c2ccc(C(F)(F)F)cn2)o1)N1CCc2[nH]cnc2C1c1nc2cc(F)ccc2o1 (stereo not drawn) : value?
[out] 1 to 5 µM
